System: blood cancer cell lines (e.g. HL-60, Jurkat, Raji, Ramos, Daudi, MOLT-4)
Test: Cell based assay, cell viability (CellTiter-Glo), blood cancer cell lines
Details: Homo sapiens, blood cancer cell line HL-60, 72 hours, read-out: IC50, HL-60
Source text: Commercially available bladder cancer, prostate cancer, lung cancer, breast cancer, blood cancer, pancreatic cancer, colorectal cancer, brain cancer, neuroblastoma, melanoma, liver cancer, cervical carcinoma, ovarian cancer, renal cancer, and papilloma cell lines were each treated with trypsin-EDTA and cultured, followed by being seeded in each well of a 96 well plate. […]
pIC50: −log10 of the molar value.
MEASURE NAME: pIC50

Illustrative cases are given below, each with its answer.
CC(=O)c1c(S/C=C\C(=O)O)[nH]c2c(Br)ccc(Cl)c2c1=O	< 5.70
CC(=O)c1c([S+](C)[O-])n(C(C)=O)c2c(Br)ccc(Cl)c2c1=O (stereo not shown)	< 5.70
CC(=O)c1c([S+](C)[O-])[nH]c2c(Br)ccc(Cl)c2c1=O (stereo not shown)	5.76
CC(=O)c1c([S+]([O-])CC#N)[nH]c2c(Br)ccc(Cl)c2c1=O (stereo not shown)	< 5.70
COc1cccc2[nH]c([S+]([O-])Cc3ccc(S(F)(F)(F)(F)F)cc3)c(C(C)=O)c(=O)c12 (stereo not shown)	< 5.70
Cc1cc(C[S+]([O-])c2[nH]c3c(Cl)ccc(Cl)c3c(=O)c2C(=O)C(C)C)no1 (stereo not shown)	5.86
CC(=O)c1c([S+]([O-])Cc2cc(C)on2)[nH]c2c(F)ccc(F)c2c1=O (stereo not shown)	< 5.70
CSc1[nH]c2ccc(F)cc2c(=O)c1C(C)=O	< 5.70
CC(=O)c1c([S+]([O-])Cc2c(F)c(F)c(F)c(F)c2F)[nH]c2c(Br)ccc(Cl)c2c1=O (stereo not shown)	< 5.70
COc1cccc(C[S+]([O-])c2[nH]c3c(Br)ccc(Cl)c3c(=O)c2C(C)=O)c1 (stereo not shown)	< 5.70

Field request: pIC50 | item: COc1ccccc1[S+]([O-])c1[nH]c2c(Br)ccc(Cl)c2c(=O)c1C(C)=O (stereo not shown) < 5.70

Field request: pIC50 | item: CC(=O)c1c([S+]([O-])Cc2ccc(SC(F)(F)F)cc2)[nH]c2c(Br)ccc(Cl)c2c1=O (stereo not shown) 5.71

----------
System: colorectal cancer cell lines (e.g. DLD-1, HCT 116, SW620, HCT-15, HCT-8, RKO)
Test: Cell based assay, cell viability (CellTiter-Glo), colorectal cancer cell lines
Conditions: Homo sapiens, SW-620, SW620, 72 hours treatment, read-out: IC50, colorectal cancer cell line SW620
The entries below are paired with their reported IC50.
Just the number please, in nM, no unit attached.

CC(=O)c1c([S+](C)[O-])[nH]c2c(Cl)ccc(Cl)c2c1=O (stereo not shown)	1550

Shifting focus to the compound that follows.
Field request: IC50 | item: CC(=O)c1c([S+]([O-])Cc2ccc(C(F)(F)F)o2)[nH]c2c(Br)ccc(Cl)c2c1=O (stereo not shown) 1240

----------
The entries below are paired with their reported IC50.
Test system: colorectal cancer cell lines (e.g. DLD-1, HCT 116, SW620, HCT-15, HCT-8, RKO)
Test: Cell based assay, cell viability (CellTiter-Glo), colorectal cancer cell lines
Conditions: Homo sapiens, SW-620, SW620, 72 hours treatment, read-out: IC50, colorectal cancer cell line SW620

Illustrative cases are given below, each with its answer.
CC(=O)c1c(SCc2cccc(F)c2)[nH]c2c(Br)ccc(Cl)c2c1=O [Compound 49]	> 2000 nM
CC(=O)c1c(Sc2ccccc2)[nH]c2c(Br)ccc(Cl)c2c1=O [Compound 12]	> 2000 nM

Shifting focus to the compound that follows.
Field request: IC50 | item: CSc1c(C(C)=O)c(=O)c2c(Cl)ccc(Br)c2n1S(C)(=O)=O [Compound 35] > 2000 nM
